- method notes: in vivo
- assay context: rat, plasma, po, 10 mg/kg
Classify as follows. Reported Cmax greater than or equal to 300 nM: YES. Reported Cmax below: NO.

[[record]]
compound = "CC(C)c1cccc(COC(=O)NC(C(=O)N[C@@H](Cc2ccccc2)[C@@H](O)C[C@H](Cc2ccccc2)NC(=O)OCc2cccnc2)C(C)C)n1 (stereo partly drawn)"
label_value = "YES"

[[record]]
compound = "CC(C)c1nc(CN(C)C(=O)NCCC(=O)N[C@@H](Cc2ccccc2)C[C@H](O)[C@H](Cc2ccccc2)NC(=O)OCc2cncs2)cs1"
label_value = "YES"

[[record]]
compound = "CC(C)C(NC(=O)OCc1csc(N2CCOCC2)n1)C(=O)N[C@@H](Cc1ccccc1)C[C@H](O)[C@H](Cc1ccccc1)NC(=O)OCc1cncs1 (stereo partly drawn)"
label_value = "NO"

[[record]]
compound = "CC(C)C(NC(=O)N(C)Cc1ccccn1)C(=O)N[C@@H](Cc1ccccc1)C[C@H](O)[C@H](Cc1ccccc1)NC(=O)OCc1cncnc1 (stereo partly drawn)"
label_value = "YES"

[[record]]
compound = "CCN(Cc1csc(C(C)C)n1)C(=O)NC(C(=O)N[C@@H](Cc1ccccc1)C[C@H](O)[C@H](Cc1ccccc1)NC(=O)OCc1cncs1)C(C)C (stereo partly drawn)"
label_value = "YES"

[[record]]
compound = "CC(C)C(NC(=O)N(C)Cc1ccccn1)C(=O)N[C@@H](Cc1ccccc1)C[C@H](O)[C@H](Cc1ccccc1)NC(=O)OCc1cccnc1 (stereo partly drawn)"
label_value = "YES"

[[record]]
compound = "CC(C)c1nc(COC(=O)NC(C(=O)N[C@@H](Cc2ccccc2)[C@@H](O)C[C@H](Cc2ccccc2)NC(=O)OCc2cccnc2)C(C)C)cs1 (stereo partly drawn)"
label_value = "YES"

[[record]]
compound = "CC(C)C(NC(=O)OCc1cncc(N)c1)C(=O)N[C@@H](Cc1ccccc1)[C@@H](O)C[C@H](Cc1ccccc1)NC(=O)OCc1cccnc1 (stereo partly drawn)"
label_value = "NO"

[[record]]
compound = "COc1ccc(CN(C)C(=O)NC(C(=O)N[C@@H](Cc2ccccc2)C[C@H](O)[C@H](Cc2ccccc2)NC(=O)OCc2cccnc2)C(C)C)cn1 (stereo partly drawn)"
label_value = "YES"

[[record]]
compound = "COCc1nc(COC(=O)NC(C(=O)N[C@@H](Cc2ccccc2)[C@@H](O)C[C@H](Cc2ccccc2)NC(=O)OCc2cccnc2)C(C)C)cs1 (stereo partly drawn)"
label_value = "YES"

[[record]]
compound = "Cc1nc(CN(C)C(=O)NC(C(=O)N[C@@H](Cc2ccccc2)[C@@H](O)C[C@H](Cc2ccccc2)NC(=O)OCc2cccnc2)C(C)C)cs1 (stereo partly drawn)"
label_value = "YES"

[[record]]
compound = "Cc1ccc(CN(C)C(=O)NC(C(=O)N[C@@H](Cc2ccccc2)C[C@H](O)[C@H](Cc2ccccc2)NC(=O)OCc2cccnc2)C(C)C)cn1 (stereo partly drawn)"
label_value = "YES"

[[record]]
compound = "COCc1ncc(COC(=O)NC(C(=O)N[C@@H](Cc2ccccc2)C[C@H](O)[C@H](Cc2ccccc2)NC(=O)OCc2cccnc2)C(C)C)s1 (stereo partly drawn)"
label_value = "NO"

